Target: Proteasome subunit beta type-8 (Homo sapiens)
Sequence (P28062 whole entry): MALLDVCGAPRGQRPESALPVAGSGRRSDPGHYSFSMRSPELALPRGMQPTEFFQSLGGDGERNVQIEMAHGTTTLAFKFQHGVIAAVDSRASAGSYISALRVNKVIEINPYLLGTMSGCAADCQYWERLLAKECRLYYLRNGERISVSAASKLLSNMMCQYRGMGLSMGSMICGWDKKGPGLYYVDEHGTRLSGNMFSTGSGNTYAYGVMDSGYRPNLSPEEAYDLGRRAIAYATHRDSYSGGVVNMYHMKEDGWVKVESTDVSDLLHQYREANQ
Assay: Inhibition of human 20S immunoproteasome beta-5 using Suc-LLVY-AMC as substrate incubated for 15 mins measured for 45 mins by fluorescence assay
The label is Fulfilled for IC50 below 4 µM and Not fulfilled for IC50 equal to or exceeding 4 µM.

smiles_structure=C[C@@H](NC(=O)[C@H](Cc1ccc(OCc2ccccc2)cc1)NC(=O)OC(C)(C)C)C(=O)N[C@@H](C[C@]1(O)C(=O)Nc2ccccc21)C(=O)NCc1ccccc1 test_target="Proteasome subunit beta type-8 (Homo sapiens)" label="Not fulfilled"
smiles_structure=NCCCC[C@H](NC(=O)[C@@H](N)Cc1ccc(OCc2ccccc2)cc1)C(=O)N[C@@H](C[C@]1(O)C(=O)Nc2ccccc21)C(=O)NCc1ccccc1 test_target="Proteasome subunit beta type-8 (Homo sapiens)" label=Fulfilled
smiles_structure=C[C@@H](O)[C@@H](NC(=O)c1ccc(OCc2ccccc2)cc1)C(=O)N[C@@H](C[C@]1(O)C(=O)Nc2ccccc21)C(=O)NCc1ccccc1 test_target="Proteasome subunit beta type-8 (Homo sapiens)" label=Fulfilled
smiles_structure=C[C@H](NC(=O)[C@H](Cc1ccc(OCc2ccccc2)cc1)NC(=O)OC(C)(C)C)C(=O)N[C@@H](C[C@]1(O)C(=O)Nc2ccccc21)C(=O)NCC(C)(C)C test_target="Proteasome subunit beta type-8 (Homo sapiens)" label="Not fulfilled"
smiles_structure=C[C@H](NC(=O)[C@H](Cc1ccc(OCc2ccccc2)cc1)NC(=O)OC(C)(C)C)C(=O)N[C@@H](C[C@@]1(O)C(=O)N(C)c2ccccc21)C(=O)NCc1ccccc1 test_target="Proteasome subunit beta type-8 (Homo sapiens)" label="Not fulfilled"
smiles_structure=NC(=O)C[C@H](NC(=O)OCc1ccccc1)C(=O)N[C@@H](C[C@]1(O)C(=O)Nc2ccccc21)C(=O)NCc1ccccc1 test_target="Proteasome subunit beta type-8 (Homo sapiens)" label=Fulfilled
smiles_structure=C[C@H](O)[C@@H](NC(=O)[C@H](Cc1ccc(OCc2ccccc2)cc1)NC(=O)OC(C)(C)C)C(=O)N[C@@H](C[C@]1(O)C(=O)Nc2ccccc21)C(=O)NCc1ccccc1 test_target="Proteasome subunit beta type-8 (Homo sapiens)" label=Fulfilled
